# Test system: SF-539
# method-summary: Cytotoxicity against human SF539 cells assessed as cell growth at 10 uM
# Assay type: cell-based
# run-parameters: sf-539, 10 µM
outcome-measure: Activity (%)
Lab book: enter the figure in %, no units written.

Enquiry: Please give the measured Activity for this compound: CN1C(=O)c2cc(C(N)=O)nc3c(Cl)cc(Cl)c1c23
Return: 104.34

Enquiry: // returns reported Activity for input CN1C(=O)c2cc(C(=O)NCc3ccccc3)nc3c(Cl)cc(Cl)c1c23
Return: 97.49

Enquiry: What does the record list as Activity for COC(=O)c1cc2c3c(n1)C(=O)C(=O)C(Cl)=C3N(C)C2=O ?
Return: 106.99

Enquiry: What does the record list as Activity for COC(=O)c1cc(C(N)=O)nc2cc(NC(C)=O)cc(Cl)c12 ?
Return: 107.48

Enquiry: Fill in: Activity of COC(=O)c1cc(C(=O)OC)c2c(Cl)cc(N)c(Cl)c2n1 is ___
Return: 99.06

Enquiry: Can you share its Activity? I mean this compound: COC(=O)c1cc(C(=O)OC)c2c(Cl)cc(NC(C)=O)cc2n1
Return: 109.23

Enquiry: Give its Activity value. Item: COC(=O)c1cc(C(=O)OC)c2c(Cl)cc(N(C)C)cc2n1
Return: 100.61

Enquiry: Using the record for CN1C(=O)c2cc(C(N)=O)nc3c(N)c(Cl)c(N)c1c23 [AMMOSAMIDE B] , report its Activity.
Return: 88.22

Enquiry: Dear colleague, I am looking for the recorded Activity of the following compound: COC(=O)c1cc(C(N)=O)nc2cc(N)cc(Cl)c12
Return: 104.82

Enquiry: Recorded Activity of COC(=O)c1cc(C(=O)OC)c2c(Cl)cc(N)cc2n1 , please.
Return: 117.31

Enquiry: Which Activity value is on record for CN(C)C(=O)c1cc2c3c(c(Cl)cc(Cl)c3n1)N(C)C2=O ?
Return: 101.43

----------
Hi there, I'd appreciate the recorded Activity for every entry that follows.
# Test system: DU-145
# method-summary: Cytotoxicity against human DU145 cells assessed as cell growth at 10 uM
# Assay type: cell-based
# run-parameters: du-145, 10 µM
Expressed in %, but write only the number.

Enquiry: Recorded Activity for COC(=O)c1cc2c3c(n1)C(=O)C(=O)C(Cl)=C3N(C)C2=O , please?
Return: 112.19

Enquiry: # lookup: Activity of CN(C)C(=O)c1cc2c3c(c(Cl)cc(Cl)c3n1)N(C)C2=O
Return: 127.34

Enquiry: Quick check: Activity of COC(=O)c1cc(C(N)=O)nc2cc(NC(C)=O)cc(Cl)c12 ?
Return: 124.6

Enquiry: Entry under review: COC(=O)c1cc(C(=O)OC)c2c(Cl)cc(NC(C)=O)cc2n1 . Reported Activity?
Return: 112.18

Enquiry: What does the record list as Activity for CN1C(=O)c2cc(C(=O)NCc3ccccc3)nc3c(Cl)cc(Cl)c1c23 ?
Return: 104.81

Enquiry: Entry COC(=O)c1cc(C(=O)OC)c2c(Cl)cc(N)cc2n1 has what Activity?
Return: 108.11

Enquiry: Any idea what Activity was measured for COC(=O)c1cc(C(N)=O)nc2cc(N)cc(Cl)c12 ?
Return: 105.75

Enquiry: Which Activity is listed for CN1C(=O)c2cc(C(N)=O)nc3c(Cl)cc(Cl)c1c23 ?
Return: 97.82

Enquiry: Dear colleague, I am looking for the recorded Activity of the following compound: CN1C(=O)c2cc(C(N)=O)nc3c(N)c(Cl)c(N)c1c23 [AMMOSAMIDE B]
Return: 114.59

Enquiry: Entry COC(=O)c1cc(C(=O)OC)c2c(Cl)cc(N)c(Cl)c2n1 : reported Activity = ?
Return: 108.85

Enquiry: Which Activity is reported for this compound? COC(=O)c1cc(C(=O)OC)c2c(Cl)cc(N(C)C)cc2n1
Return: 138.91
